target: VIM-2 (Escherichia coli, UniProt Q5U7L7)
IC50 strictly less than 2 nM = rule met. Otherwise rule not met.

# COMPOUND, ANSWER_LABEL
rows = [
    ("NC[C@@H](O)CNS(=O)(=O)c1ccc(N2CC[C@H](CO)n3ccnc32)c(-c2nn[nH]n2)c1S(N)(=O)=O", "rule not met"),
    ("NC[C@H](CO)NS(=O)(=O)c1ccc(N2CCCn3ccnc32)c(-c2nnn[nH]2)c1S(N)(=O)=O", "rule not met"),
    ("Nc1nc2c(s1)CN(c1ccc(S(=O)(=O)N[C@@H]3CCNC3)c(S(N)(=O)=O)c1-c1nnn[nH]1)CC2", "rule not met"),
    ("NCC(CN)NS(=O)(=O)c1ccc(N2CCCn3ccnc32)c(-c2nn[nH]n2)c1S(N)(=O)=O", "rule not met"),
    ("NS(=O)(=O)c1c(S(=O)(=O)N[C@@H]2CCNC2)ccc(N2Cc3cccnc3C2)c1-c1nnn[nH]1", "rule not met"),
    ("NC[C@@H](O)CNS(=O)(=O)c1ccc(N2CCCn3ccnc32)c(-c2nnn[nH]2)c1S(N)(=O)=O", "rule met"),
    ("NC[C@@H](O)CNS(=O)(=O)c1ccc(N2CCc3nc(N)[nH]c3C2)c(-c2nn[nH]n2)c1S(N)(=O)=O", "rule not met"),
    ("NCC(CN)NS(=O)(=O)c1ccc(N2CCn3ccnc3C2)c(-c2nn[nH]n2)c1S(N)(=O)=O", "rule met"),
    ("NS(=O)(=O)c1c(S(=O)(=O)N[C@@H]2CCNC2)ccc(N2CCc3ncccc32)c1-c1nnn[nH]1", "rule met"),
]
